- assay_protocol: Photophysical property of the compound in water assessed as fluorescence quantum yield under 450 nm photoirradiation with blue light lamp by U-4100 spectrophotometric analysis
- Format: physicochemical
- Set-up: unit not given here
- condition_description: buffer
endpoint_label: Activity

a: CCN(CC)c1ccc2cc(-c3nc4ccc(OCc5cn(CCNS(=O)(=O)c6ccc(C)cc6)nn5)cc4c(=O)[nH]3)c(=O)oc2c1
b: CCN(CC)c1ccc2cc(-c3nc4ccc(OCCCN5CCOCC5)cc4c(=O)[nH]3)c(=O)oc2c1
c: CCN(CC)c1ccc2cc(-c3nc4ccc(OCCN5CCCCC5)cc4c(=O)[nH]3)c(=O)oc2c1
Query :: Which order do the above molecules take when sorted by rising Activity? Smallest first. Ranked list of labels, please, in the requested order.
Result :: a, c, b
(a: 7.55, c: 15.68, b: 31.49)

meta.source: ChEMBL document CHEMBL6092198
